Target: T1, Ravn strain cleaved MARV GP ectodomain (Marburg virus, Ravn strain, UniProt Q1PDC7 19-648)
T1 chain: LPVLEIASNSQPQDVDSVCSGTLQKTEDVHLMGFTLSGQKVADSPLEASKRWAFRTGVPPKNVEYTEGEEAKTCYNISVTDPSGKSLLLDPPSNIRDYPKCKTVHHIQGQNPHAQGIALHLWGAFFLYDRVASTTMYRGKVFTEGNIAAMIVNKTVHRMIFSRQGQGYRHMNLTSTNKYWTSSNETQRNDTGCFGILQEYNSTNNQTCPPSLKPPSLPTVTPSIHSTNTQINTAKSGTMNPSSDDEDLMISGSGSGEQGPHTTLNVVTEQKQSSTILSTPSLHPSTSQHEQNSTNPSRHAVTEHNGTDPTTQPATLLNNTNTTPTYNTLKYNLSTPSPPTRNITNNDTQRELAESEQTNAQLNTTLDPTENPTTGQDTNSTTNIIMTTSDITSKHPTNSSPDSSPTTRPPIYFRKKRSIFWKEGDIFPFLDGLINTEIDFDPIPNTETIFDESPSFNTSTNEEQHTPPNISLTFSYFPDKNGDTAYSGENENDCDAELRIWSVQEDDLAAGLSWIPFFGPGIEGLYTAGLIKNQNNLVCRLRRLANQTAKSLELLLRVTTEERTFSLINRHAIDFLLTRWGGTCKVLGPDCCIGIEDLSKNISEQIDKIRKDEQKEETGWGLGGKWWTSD
Assay: ELISA
measured-metric: EC50 (µg/mL)
Form entry: value (µg/mL) — number only.

Sample MR144 (antibody, V domains shown) V domain 1: QVQLQESGPGLVKPSETLSLTCTVSGDSISRYYWSWIRQPPGKGLEWIGYLYYSGSTDYNPSLKSRVTISVDTSKNQFSLNLTSVTAADTAVYYCARGSSRGIGVVSHWFDPWGQGT V domain 2: SYVLTQPPSVSVAPGQTARITCGGSNMGYKSVQWYQQRPGQAPVLVVYDDTDRPSGIPERFSGSNSGATATLTISSVEAGDEADYYCQVWDSSSDHHVVFGGGTQVTVL ; EC50 observed: 3.3

Lab note: measured EC50 of MR241 (antibody, V domains shown) VH: QVQLQESGPGLVKPSETLSLTCTVSGASISGNFWSWIRQPPGKGLEYIGYMSDIGTTNYSPSLKSRVTISVDTSKNQFSLNLTSVTAADAAVYYCARLVAVPGFFYHYYMDVWGEGTLVTVSS VL: DIVMTQSPSSVSASVGDRVTITCRASQGISGWLAWYQQKPGKAPKLLIYATSTLQSGVPSRFSGSESGTAFTLTISSLQPEDFATYYCQQANSFPLTFGGGTKVEIK was 1.2

Reported EC50 of MR229 (antibody) chain 1: EVQLVESGGGLVKPGGSLRISCVTSGFTFGDYAMSWFRQAPGKGLEWVGFIRNKGYGGTIDYAASVKGRFTISRDDSKSIAYLQMNSLKTEDTAVYYCTGVRLHYDFWSGYDDDSFHIWGQGTM chain 2: DGVMTQSPLSLPVTPGQPASISCRSTQSLVHGDGDTYLYWFQQRPGQSPRRLIYKVSNRDSGVPDRFSGSGSGTDFTLKISRVEAEDVGVYYCMQSTHWPPTFGQ : 1.2
